# Protocol description: physchem
# Format: physicochemical
# Study conditions: 3% tween 80 in water
Readout label: half-life (h)
Enter your answer as a number in h; do not include the unit.

Data request, read-out half-life, for CC1=C(/C=C/C(C)=C/C=C/C(C)=C/CO)C(C)(C)CCC1 [Free retinol, retinol]
2.03
